target: DP1 receptor (Homo sapiens); construct: expressed in transfected cells; experiment: cAMP assay (TR-FRET or HTRF kit, forskolin), Examples 5 and 6; assay type: cell-based; conditions: Table 3 (Example 5); read-out: EC50, DP receptor
Sequence (Q13258 whole entry): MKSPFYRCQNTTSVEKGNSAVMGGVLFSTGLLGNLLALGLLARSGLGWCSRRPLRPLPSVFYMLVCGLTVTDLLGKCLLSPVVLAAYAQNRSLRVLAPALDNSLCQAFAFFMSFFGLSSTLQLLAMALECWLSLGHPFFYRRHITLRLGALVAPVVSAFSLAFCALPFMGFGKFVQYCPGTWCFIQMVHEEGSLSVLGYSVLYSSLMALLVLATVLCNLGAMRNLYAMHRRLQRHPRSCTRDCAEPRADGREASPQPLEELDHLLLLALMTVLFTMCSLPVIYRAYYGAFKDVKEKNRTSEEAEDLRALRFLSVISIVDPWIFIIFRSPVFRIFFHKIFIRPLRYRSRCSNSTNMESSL
# maps each entry to its pEC50
pEC50 field: float, defined as -log10 of concentration (mol/L).

CCCCC[C@H](O)CC[C@@H]1[C@H]2Cc3cccc(OCC(=O)O)c3C[C@H]2C[C@H]1O ... 10.11

# return recorded pEC50 for input CCCCC[C@H](O)CC[C@@H]1[C@H]2Cc3cccc(OCC(=O)OCC(=O)O)c3C[C@H]2C[C@H]1O [Prodrug XV]
8.16

====

experiment: Equilibrium solubility in vehicle; type: physicochemical; conditions: aqueous buffer, thermodynamic from solid; 20 mM sodium phosphate dibasic with 125 mM sodium chloride; T24 hours; read-out: Equilibrium solubility, T24 hours Concentration
As shown below, each of these compounds has a reported solubility thermodynamic at 24 h value.
State the answer as a number, implicitly in mg/mL.

Identify measured solubility thermodynamic at 24 h associated with CCCCC[C@H](O)CC[C@@H]1[C@H]2Cc3cccc(OCC(=O)N[C@@H](C)C(=O)O)c3C[C@H]2C[C@H]1O [Prodrug X, treprostinil alanine amide]
10.6

Kindly indicate its recorded solubility thermodynamic at 24 h. Item: CCCCC[C@H](O)CC[C@@H]1[C@H]2Cc3cccc(OCC(=O)NC(C(=O)O)C(C)C)c3C[C@H]2C[C@H]1O (stereo partly shown) [Prodrug XI, treprostinil valine amide]
11.3

Return value of solubility thermodynamic at 24 h for input CCCCC[C@@H](CC[C@@H]1[C@H]2Cc3cccc(OCC(=O)O)c3C[C@H]2C[C@H]1O)OC(=O)OC [Prodrug IV] , no commentary.
12.2

Please indicate solubility thermodynamic at 24 h recorded for CCCCC[C@H](O)CC[C@@H]1[C@H]2Cc3cccc(OCC(=O)N[C@@H](CO)C(=O)O)c3C[C@H]2C[C@H]1O [Prodrug XIII, treprostinil serine amide]
3.7

Answer with the recorded solubility thermodynamic at 24 h of CCCCC[C@H](O)CC[C@@H]1[C@H]2Cc3cccc(OCC(=O)NS(C)(=O)=O)c3C[C@H]2C[C@H]1O [Prodrug XIV, treprostinil methanesulfonamide] only.
27.5

Give the reported solubility thermodynamic at 24 h for this compound. CCCCC[C@H](O)CC[C@@H]1[C@H]2Cc3cccc(OCC(=O)NC(CC(=O)O)C(=O)O)c3C[C@H]2C[C@H]1O (stereo partly shown) [Prodrug XII, treprostinil aspartic acid amide]
7.5

Please supply the value of reported solubility thermodynamic at 24 h for the item CCCCC[C@H](O)CC[C@@H]1[C@H]2Cc3cccc(OCC(=O)O)c3C[C@H]2C[C@H]1OC(=O)OC [Prodrug III]
6

====

Known Solution stability, T0 Purity of a selection of compounds
test: Solution stability in vehicle (UPLC area %); assay type: physicochemical; settings: 20 mM sodium phosphate dibasic with 125 mM sodium chloride; ambient; T0
Quick note: give the figure in % Area, leave out the unit.

CCCCC[C@H](O)CC[C@@H]1[C@H]2Cc3cccc(OCC(=O)O)c3C[C@H]2C[C@H]1OC(=O)OC [Prodrug III] ... 94.48

// Input: CCCCC[C@H](O)CC[C@@H]1[C@H]2Cc3cccc(OCC(=O)NC(C(=O)O)C(C)C)c3C[C@H]2C[C@H]1O (stereo partly shown) [Prodrug XI, treprostinil valine amide] . Output its Solution stability, T0 Purity only.
99.49

Quick one: give measured Solution stability, T0 Purity for CCCCC[C@H](O)CC[C@@H]1[C@H]2Cc3cccc(OCC(=O)NC(CC(=O)O)C(=O)O)c3C[C@H]2C[C@H]1O (stereo partly shown) [Prodrug XII, treprostinil aspartic acid amide]
98.70

Supply reported Solution stability, T0 Purity belonging to this compound: CCCCC[C@H](O)CC[C@@H]1[C@H]2Cc3cccc(OCC(=O)N[C@@H](CO)C(=O)O)c3C[C@H]2C[C@H]1O [Prodrug XIII, treprostinil serine amide]
97.66

Fill in Solution stability, T0 Purity for record CCCCC[C@H](O)CC[C@@H]1[C@H]2Cc3cccc(OCC(=O)N[C@@H](C)C(=O)O)c3C[C@H]2C[C@H]1O [Prodrug X, treprostinil alanine amide]
96.59

In one line, give reported Solution stability, T0 Purity of the entry CCCCC[C@@H](CC[C@@H]1[C@H]2Cc3cccc(OCC(=O)O)c3C[C@H]2C[C@H]1O)OC(=O)OC [Prodrug IV] .
99.19

For the compound CCCCC[C@H](O)CC[C@@H]1[C@H]2Cc3cccc(OCC(=O)NS(C)(=O)=O)c3C[C@H]2C[C@H]1O [Prodrug XIV, treprostinil methanesulfonamide] , give its measured Solution stability, T0 Purity value.
94.20
